# system: recombinant soluble homotrimeric HA of A/Wisconsin/67/05 (H3N2) (Influenza A virus A/Wisconsin/67/2005(H3N2))
# run_description: HA microarray, BCC supernatant
# measurement_context: remark: other sources report otherwise
assay_readout: log10 of Trimeric HA Binding: RLU (log10 of the value in RLU)
All values: base-10 log of Trimeric HA Binding: RLU in RLU.

Known results for binders:
{"columns": ["binder", "quantitative_readout"],
 "data": [
  ["TCN-526 (5084_C17) (antibody, V domains shown) VH: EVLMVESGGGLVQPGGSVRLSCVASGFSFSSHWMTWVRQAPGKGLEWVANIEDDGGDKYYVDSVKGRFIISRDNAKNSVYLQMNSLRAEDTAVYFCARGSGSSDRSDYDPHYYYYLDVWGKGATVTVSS VL: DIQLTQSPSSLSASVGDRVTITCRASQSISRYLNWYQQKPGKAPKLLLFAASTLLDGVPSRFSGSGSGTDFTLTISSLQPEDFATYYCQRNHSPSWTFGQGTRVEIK", 4.69],
  ["TCN-537 (3194_D21) (antibody, V domains shown) VH: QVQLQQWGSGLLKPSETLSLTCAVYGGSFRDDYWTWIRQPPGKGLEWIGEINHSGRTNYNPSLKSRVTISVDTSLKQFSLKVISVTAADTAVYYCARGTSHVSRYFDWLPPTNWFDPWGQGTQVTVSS VL: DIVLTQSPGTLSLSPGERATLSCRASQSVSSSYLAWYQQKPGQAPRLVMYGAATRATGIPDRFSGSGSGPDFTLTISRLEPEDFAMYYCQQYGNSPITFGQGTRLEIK", 2.74]
]}

Qu. Give me measured log10 of Trimeric HA Binding: RLU, please, for this binder: TCN-554 (5277_M05) (antibody, V domains shown) VH: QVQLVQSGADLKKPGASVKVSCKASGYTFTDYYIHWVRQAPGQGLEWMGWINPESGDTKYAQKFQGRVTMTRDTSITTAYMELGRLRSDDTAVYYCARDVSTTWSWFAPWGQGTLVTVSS VL: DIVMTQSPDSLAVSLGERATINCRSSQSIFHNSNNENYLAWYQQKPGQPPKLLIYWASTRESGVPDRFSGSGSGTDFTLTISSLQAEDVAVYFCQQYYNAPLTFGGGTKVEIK
Ans. 4.67

Qu. Look up and report measured log10 of Trimeric HA Binding: RLU for this entry: TCN-545 (5082_I15) (antibody, V domains shown) VH: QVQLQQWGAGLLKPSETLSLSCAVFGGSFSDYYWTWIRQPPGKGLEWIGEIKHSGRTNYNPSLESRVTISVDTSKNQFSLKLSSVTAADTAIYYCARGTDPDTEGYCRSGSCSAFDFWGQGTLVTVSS VL: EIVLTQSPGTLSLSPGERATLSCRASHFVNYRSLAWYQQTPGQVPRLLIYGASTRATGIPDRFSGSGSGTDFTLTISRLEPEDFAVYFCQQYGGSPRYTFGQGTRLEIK
Ans. 2.76

Qu. Report log10 of Trimeric HA Binding: RLU for TCN-563 (5237_B21) (antibody, V domains shown) VH: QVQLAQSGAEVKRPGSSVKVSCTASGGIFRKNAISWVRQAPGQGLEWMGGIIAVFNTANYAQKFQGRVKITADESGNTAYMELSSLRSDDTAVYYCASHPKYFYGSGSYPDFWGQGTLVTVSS VL: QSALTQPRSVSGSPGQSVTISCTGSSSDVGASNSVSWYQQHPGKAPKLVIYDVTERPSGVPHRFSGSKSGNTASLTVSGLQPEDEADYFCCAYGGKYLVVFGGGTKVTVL
Ans. 4.61

Qu. Provide one value: measured log10 of Trimeric HA Binding: RLU of TCN-534 (5249_B02) (antibody, V domains shown) VH: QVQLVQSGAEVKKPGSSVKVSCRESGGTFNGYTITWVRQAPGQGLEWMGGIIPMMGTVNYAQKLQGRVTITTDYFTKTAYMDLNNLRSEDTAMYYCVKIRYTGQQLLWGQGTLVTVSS VL: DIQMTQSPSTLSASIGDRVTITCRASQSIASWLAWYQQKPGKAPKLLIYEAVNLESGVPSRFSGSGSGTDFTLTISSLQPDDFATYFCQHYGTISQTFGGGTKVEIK
Ans. 3.90

Qu. Give log10 of Trimeric HA Binding: RLU for TCN-547 (5092_F11) (antibody, V domains shown) VH: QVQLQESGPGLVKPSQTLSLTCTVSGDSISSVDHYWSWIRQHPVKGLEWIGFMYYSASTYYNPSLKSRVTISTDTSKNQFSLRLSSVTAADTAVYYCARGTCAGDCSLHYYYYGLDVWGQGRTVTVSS VL: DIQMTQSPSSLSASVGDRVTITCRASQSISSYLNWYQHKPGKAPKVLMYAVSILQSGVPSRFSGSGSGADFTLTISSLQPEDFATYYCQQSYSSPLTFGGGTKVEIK
Ans. 4.23

Qu. // Input: TCN-530 (5248_H10a) (antibody, V domains shown) VH: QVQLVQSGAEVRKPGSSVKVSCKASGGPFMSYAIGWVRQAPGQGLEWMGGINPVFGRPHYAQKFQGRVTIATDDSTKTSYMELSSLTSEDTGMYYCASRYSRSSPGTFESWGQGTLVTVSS VL: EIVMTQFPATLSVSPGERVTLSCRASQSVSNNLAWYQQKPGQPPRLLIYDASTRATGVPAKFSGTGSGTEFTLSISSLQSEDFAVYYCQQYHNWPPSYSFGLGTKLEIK . Output its log10 of Trimeric HA Binding: RLU only.
Ans. 4.57

Qu. Please give the documented log10 of Trimeric HA Binding: RLU of TCN-528 (5087_P17) (antibody, V domains shown) VH: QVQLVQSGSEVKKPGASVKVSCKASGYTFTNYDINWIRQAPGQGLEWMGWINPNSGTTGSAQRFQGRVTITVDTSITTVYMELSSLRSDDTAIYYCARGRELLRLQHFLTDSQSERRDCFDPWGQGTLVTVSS VL: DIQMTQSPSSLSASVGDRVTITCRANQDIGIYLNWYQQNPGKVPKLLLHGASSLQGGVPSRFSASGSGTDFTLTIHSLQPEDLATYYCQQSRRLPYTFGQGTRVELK
Ans. 4.69

Qu. Write down log10 of Trimeric HA Binding: RLU measured for item TCN-532 (5262_H18) (antibody, V domains shown) VH: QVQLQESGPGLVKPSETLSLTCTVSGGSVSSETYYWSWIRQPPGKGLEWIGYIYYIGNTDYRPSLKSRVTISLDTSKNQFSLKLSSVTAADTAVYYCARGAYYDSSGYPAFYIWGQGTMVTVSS VL: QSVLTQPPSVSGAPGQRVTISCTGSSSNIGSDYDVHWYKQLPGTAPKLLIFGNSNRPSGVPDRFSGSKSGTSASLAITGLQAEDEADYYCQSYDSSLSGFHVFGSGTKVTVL
Ans. 4.26
